target: T1, mouse LTβR extracellular domain fused with an Fc fragment at the C-terminus (mouse, UniProt P50284 31-223); assay: ELISA on coated target-Fc
T1 construct: extracellular domain; Bought; also called mLTβR; not shown: Fc fragment at the C-terminus
T1 sequence (P50284 31-223): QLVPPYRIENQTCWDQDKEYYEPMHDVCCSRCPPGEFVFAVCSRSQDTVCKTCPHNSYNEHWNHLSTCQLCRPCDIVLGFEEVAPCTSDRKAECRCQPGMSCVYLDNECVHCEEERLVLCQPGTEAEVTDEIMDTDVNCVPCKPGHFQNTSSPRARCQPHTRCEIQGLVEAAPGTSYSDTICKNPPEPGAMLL
Assay Metric: EC50 (µg/mL)
Respond numerically; units are µg/mL and should not be typed.

The examples below pair each entry with its known result.
{"Binder": "LIGHT-21 (ligand, Printed mutations: S160G, T161P, L220T; Soluble protein carries an N-terminal His tag) DGPAGSWEQLIQERRSHEVNPAAHLTGANSSLTGSGGPLLWETQLGLAFLRGLSYHDGALVVTKAGYYYIYSKVQLGGVGCPLGLAGPITHGLYKRTPRYPEELELLVSQQSPCGRATSSSRVWWDSSFLGGVVHLEAGEKVVVRVTDERLVRLRDGTRSYFGAFMV", "EC50 (µg/mL)": 0.134}
{"Binder": "LIGHT-47 (ligand, Printed mutations: L126M, A190V, H208Y; Soluble protein carries an N-terminal His tag) DGPAGSWEQLIQERRSHEVNPAAHLTGANSSLTGSGGPLLWETQLGLAFLRGMSYHDGALVVTKAGYYYIYSKVQLGGVGCPLGLASTITHGLYKRTPRYPEELELLVSQQSPCGRVTSSSRVWWDSSFLGGVVYLEAGEKVVVRVLDERLVRLRDGTRSYFGAFMV", "EC50 (µg/mL)": 0.0706}

Now consider the entry below.
Task item: Query: EC50; subject: LIGHT-32 (ligand, Printed mutations: S160R, L220S; Soluble protein carries an N-terminal His tag) DGPAGSWEQLIQERRSHEVNPAAHLTGANSSLTGSGGPLLWETQLGLAFLRGLSYHDGALVVTKAGYYYIYSKVQLGGVGCPLGLARTITHGLYKRTPRYPEELELLVSQQSPCGRATSSSRVWWDSSFLGGVVHLEAGEKVVVRVSDERLVRLRDGTRSYFGAFMV
Reply: 0.0632
